Molecular target: THR beta-LBD (Homo sapiens, UniProt P10828)
Construct: THR beta-LBD (the final concentration is 0.5 nM) was added to the 384-well assay plate; purchased Invitrogen PV4686
Sequence (P10828 217-461 limits assumed): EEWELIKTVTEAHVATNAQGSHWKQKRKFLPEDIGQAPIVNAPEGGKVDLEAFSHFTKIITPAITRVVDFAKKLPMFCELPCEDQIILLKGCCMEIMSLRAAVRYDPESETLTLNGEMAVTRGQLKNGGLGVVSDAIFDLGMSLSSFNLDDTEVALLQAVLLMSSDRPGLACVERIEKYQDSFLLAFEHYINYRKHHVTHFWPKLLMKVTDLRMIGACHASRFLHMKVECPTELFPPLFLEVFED
Experiment: THR-β Coactivator Peptide Recruitment Assay (LanthaScreen TR-FRET)
Format: biochemical
Settings: TR-FRET coactivator recruitment, THR beta-LBD 0.5 nM
Recorded endpoint: THRβ Emax

Take a look at these entries with their results.
{"Molecule": "O=C(NC1CCC1)c1cc(Oc2c(Cl)cc(-n3nc(C(F)(F)F)c(=O)[nH]c3=O)cc2Cl)c(F)cc1O", "THRβ Emax": "B (75~90)"}
{"Molecule": "O=c1[nH]c(=O)n(-c2cc(Cl)c(Oc3cnc(O)c(S(=O)(=O)NC4CCC4)c3)c(Cl)c2)nc1C(F)F", "THRβ Emax": "B (75~90)"}
{"Molecule": "CNC(=O)N1CC(NS(=O)(=O)c2cc(Oc3c(Cl)cc(-n4nc(C(F)F)c(=O)[nH]c4=O)cc3Cl)ccc2O)C1", "THRβ Emax": "C (<75)"}
{"Molecule": "O=C(c1cc(Oc2c(Cl)cc(-n3nc(Cl)c(=O)[nH]c3=O)cc2Cl)ccc1O)N1C[C@@H]2CC[C@H]1C2 (single isomer, unassigned)", "THRβ Emax": "B (75~90)"}
{"Molecule": "O=c1[nH]c(=O)n(-c2cc(Cl)c(S(=O)(=O)c3ccc(O)c(C4CCC4)c3)c(Cl)c2)nc1C(F)(F)F", "THRβ Emax": "A (90~110)"}
{"Molecule": "N#CC1CC(N[S@SP3](=O)(=O)c2cc(Oc3c(Cl)cc(-n4nc(C(F)F)c(=O)[nH]c4=O)cc3Cl)ccc2O)C1 (stereo not shown)", "THRβ Emax": "A (90~110)"}
{"Molecule": "O=C(NC1CC1)C1(NS(=O)(=O)c2cc(Oc3c(Cl)cc(-n4nc(C(F)F)c(=O)[nH]c4=O)cc3Cl)ccc2O)CCC1", "THRβ Emax": "B (75~90)"}
{"Molecule": "O=c1[nH]c(=O)n(-c2cc(Cl)c(Oc3ccc(O)c(S(=O)(=O)N4CCC(O)CC4)c3)c(Cl)c2)nc1C(F)F", "THRβ Emax": "B (75~90)"}

input: Give THR beta-LBD (Homo sapiens, UniProt P10828) THRβ Emax for the following molecule: "CNS(=O)(=O)c1cc(Oc2c(Cl)cc(-n3nc(C#N)c(=O)[nH]c3=O)cc2Cl)ncc1O"
output: B (75~90)

input: Give THR beta-LBD (Homo sapiens, UniProt P10828) THRβ Emax for the following molecule: "C[C@]1(O)C[C@@H](NS(=O)(=O)c2cc(Oc3c(Cl)cc(-n4nc(C(F)F)c(=O)[nH]c4=O)cc3Cl)ncc2O)C1"
output: C (<75)

input: Give THR beta-LBD (Homo sapiens, UniProt P10828) THRβ Emax for the following molecule: "NS(=O)(=O)c1cc(Oc2c(Cl)cc(-n3nc(C(F)F)c(=O)[nH]c3=O)cc2Cl)ccc1O"
output: B (75~90)

input: Give THR beta-LBD (Homo sapiens, UniProt P10828) THRβ Emax for the following molecule: "O=c1[nH]c(=O)n(-c2cc(Cl)c(Oc3ccc(O)c(S(=O)(=O)N4CC[C@H](O)C4)c3)c(Cl)c2)nc1C(F)F"
output: B (75~90)
